- Tested on: FPDH
- MEASUREMENT NOTES: Specificity of FPDH: reducing activity against various carbonyl compounds as substrates
- Format: biochemical, Candida maris IFO 10003
- ASSAY CONTEXT: substrate 1 mM; 5-acetylfuro[2,3-c]pyridine = 100%; 0.25 mM NADH, pH 6.5, 30° C.
MEASURE NAME: Relative activity (reducing activity, Table 8) (%)

>>> df
                             compound  target_under_test  observed
0                       CC(=O)CC(C)=O               FPDH       123
1                       CC(=O)c1nccs1               FPDH        86
2     CCOC(=O)C(C)=O [Ethyl pyruvate]               FPDH       133
3                  CC(=O)c1ccc(Cl)cc1               FPDH        88
4  CC(=O)C1CCCC1=O (stereo not drawn)               FPDH        86
5                      CC(=O)c1cccnc1               FPDH       107

====

- Test system: FPDH
- MEASUREMENT NOTES: Specificity of FPDH: reducing activity against various carbonyl compounds as substrates
- Assay type: biochemical, Candida maris IFO 10003
- ASSAY CONTEXT: substrate 1 mM; 5-acetylfuro[2,3-c]pyridine = 100%; 0.25 mM NADH, pH 6.5, 30° C.
MEASURE NAME: Relative activity (reducing activity, Table 8) (%)

>>> print(df.to_string())
                                   compound  target_under_test  observed
 0  O=C(CO)c1ccccc1 [2-Hydroxyacetophenone]               FPDH        54
 1                        CC(=O)c1ccc(F)cc1               FPDH        88
 2                         CC(=O)c1ccc[nH]1               FPDH       100
 3                                 CCC(C)=O               FPDH        94
 4                            CC(=O)c1ccco1               FPDH        43
 5             CC(=O)c1cccc([N+](=O)[O-])c1               FPDH       136
 6                         CC(=O)CCc1ccccc1               FPDH        96
 7                             CC(=O)CC(C)C               FPDH        14
 8                             CC(=O)C(C)=O               FPDH       107
 9                               CCCCC(C)=O               FPDH        38
10                         CC(=O)c1ccccc1Cl               FPDH         9
11                           CC(=O)c1ccncc1               FPDH       130
